Data origin: paper PMC7887213

- target_desc: T1, Ac-[residues removed]-NH2 (NPNA2 peptide) (Plasmodium falciparum (synthetic CSP …))
- T1 construct: also called 8-mer peptide; source: synthetic peptide; bought: Innopep Inc
- method: ITC; peptide in the syringe, Fab (~10 uM) in the cell; DPBS, 25 °C; single-site binding model; triplicate, mean ± SD; No. of sites = peptide per Fab
- reported_conditions: both partners purified
Exercise: state measured stoichiometry N for each of the binders provided.
Give a plain numeric answer without units written out.

Prompt: Requested field: stoichiometry N. Item: Fab366 (Fab, V domains shown, also called mAb366; source: ExpiCHO cells, purified (HiTrap Protein G, SEC)) VH: QVQLVQSGAEVKKPGASARVSCKASGYTLTDFYLHWVRQAPGQGLEWMGWLNPHSGGTNYAQKFLGRVSMTRDTSISTAYMELNKLISDDTAVYFCVRSDQEALRGAFDIWGQGTMVFVSS VL: DIQMTQSPSSLSASVGDTVTITCRASQSINDYLNWYQQKPGKAPKLLIYATSSLHSGVPSRFSGSGFGTDFTLTISSLQPEDSATYLCQQSHSLWTFGQGTKVEVK
Completion: 1.21

Prompt: Another binder to look at: Fab395 (Fab, V domains shown, also called mAb395; source: ExpiCHO cells, purified (HiTrap Protein G, SEC)) VH: QEQLVESGGGVVQPGRSLRLSCAAASEFCFSCYGMHWVRQAPGKGLEWVAVIWHDGSNQHFADSVKGRFTISRDNSKNIMYLQMNSLRAEDTAVYYCASATRYDILTGAFDYWGQGTLVTVSS VL: DIQMTQSPSTLSASVGDRVTITCRASQSISTWLAWYQQKPGKAPKLLIYKASSLESGVPSRFSGSGSGTEFTLTISSLQPDDFATYYCQQYSRYWTFGQGTKVEIK
Completion: 1.35

Prompt: Another binder to look at: Fab239 (Fab, V domains shown, also called mAb239; source: ExpiCHO cells, purified (HiTrap Protein G, SEC)) VH: QVQLVESGGGVVQPGRSLRLSCAASRLTFRNFGMHWVRQTPGKGLEWVAVIWHDGSNKFYADSVEGRFTISRDNSKNTLYLQMNSLRDEDTAIYYCAKDWGGASDRVFDYWGRGTLVIVSS VL: DIQMTQSPSTLSASVGDRVTITCRASQSVSTSLAWYQQKPGKAPNLLIYQASTLYRGVPSRFSGSGSGTEFTLTIGSLQPDDFATYYCQHYNSYSRITFGQGTRLEIK
Completion: 1.34
